meta.source: patent US20220235143A1

test-system: T1, MUC16 peptide-2 glycopeptide (human, also: glycopeptide, glycan and its site not given here)
T1 peptide: TLDRSSVLVDGYSPNRNE
run-description: SPR, BIAcore X100, peptide-2 glycopeptide over antibody captured by anti-IgG
Where no end group is shown, it is not given here.
measure-name: koff (s⁻¹)
Respond with the bare value in s⁻¹.

See these solved cases before continuing.
binder | koff [s⁻¹]
18C6 H2L2 humanized antibody (antibody, human IgG1, kappa, V domains shown) VH: QVTLKESGPTLVKPTQTLTLTCTFSGFSLSTVGMGVGWSRQPSGKGLEWLAHIWWDDEDKYYNPALKSRLTITKDTSKNQVVLTITNVDPVDTATYYCTRIGTAQATDALDYWGQGTLVTVSS VL: DIVMTQSALSLPVTPGEPVSISCRSSKSLLHSNGNTYLYWFLQKPGQSPQRLIYYMSNLASGVPDRFSGSGSGTDFTLKISRVEAEDVGVYYCMQSLEYPLTFGGGTKLEIKR | 0.004
18C6 H2L1 humanized antibody (antibody, human IgG1, kappa, V domains shown) VH: QVTLKESGPTLVKPTQTLTLTCTFSGFSLSTVGMGVGWSRQPSGKGLEWLAHIWWDDEDKYYNPALKSRLTITKDTSKNQVVLTITNVDPVDTATYYCTRIGTAQATDALDYWGQGTLVTVSS VL: DIVMTQSAPSVPVTPGESVSISCRSSKSLLHSNGNTYLYWFLQKPGQSPQRLIYYMSNLASGVPDRFSGRGSGTDFTLKISRVEAEDVGVYYCMQSLEYPLTFGGGTKLEIKR | 0.0054
18C6 H1L1 humanized antibody (antibody, human IgG1, kappa, V domains shown, also called H1L1 humanized 18C6 antibody) VH: QVTLKESGPGILQPTQTLTLTCTFSGFSLSTVGMGVGWSRQPSGKGLEWLAHIWWDDEDKYYNPALKSRLTITKDTSKNQVFLKITNVDTADTATYYCTRIGTAQATDALDYWGQGTLVTVSS VL: DIVMTQSAPSVPVTPGESVSISCRSSKSLLHSNGNTYLYWFLQKPGQSPQRLIYYMSNLASGVPDRFSGRGSGTDFTLKISRVEAEDVGVYYCMQSLEYPLTFGGGTKLEIKR | 0.0019

Now consider a different binder.
**Query** Returns the measured koff for the input binder. Input: 18C6 H1L2 humanized antibody (antibody, human IgG1, kappa, V domains shown) VH: QVTLKESGPGILQPTQTLTLTCTFSGFSLSTVGMGVGWSRQPSGKGLEWLAHIWWDDEDKYYNPALKSRLTITKDTSKNQVFLKITNVDTADTATYYCTRIGTAQATDALDYWGQGTLVTVSS VL: DIVMTQSALSLPVTPGEPVSISCRSSKSLLHSNGNTYLYWFLQKPGQSPQRLIYYMSNLASGVPDRFSGSGSGTDFTLKISRVEAEDVGVYYCMQSLEYPLTFGGGTKLEIKR
**Result** 0.0025
